Attribute: Ki
target: D(2) dopamine receptor (Homo sapiens); assay: Ability to displace [125I]iodosulpiride from human dopamine D2 (hD2) receptor transfected into CHO cells.
Sequence (P14416 whole entry): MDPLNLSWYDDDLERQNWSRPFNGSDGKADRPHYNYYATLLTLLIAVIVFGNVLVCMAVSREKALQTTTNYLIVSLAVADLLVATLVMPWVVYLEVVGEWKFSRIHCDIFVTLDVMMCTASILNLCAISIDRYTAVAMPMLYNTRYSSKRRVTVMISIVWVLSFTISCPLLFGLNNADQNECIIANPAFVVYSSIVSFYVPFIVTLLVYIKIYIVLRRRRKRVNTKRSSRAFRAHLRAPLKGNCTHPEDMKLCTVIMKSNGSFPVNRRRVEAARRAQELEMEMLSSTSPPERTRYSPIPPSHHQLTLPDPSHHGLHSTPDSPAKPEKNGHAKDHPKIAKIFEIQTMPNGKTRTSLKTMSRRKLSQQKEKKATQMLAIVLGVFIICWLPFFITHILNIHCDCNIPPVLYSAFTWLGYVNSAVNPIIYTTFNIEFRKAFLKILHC
READOUT_TYPE: Ki (µM)

COMPOUND | REPORTED_RESULT
N#Cc1ccc2c(c1)C1CN(CCCCNC(=O)c3ccc(-c4ccccc4)cc3)CC1CO2 (stereo not drawn) | 0.0794
CC(=O)Nc1ccc(CN2C[C@H]3COc4ccc(C#N)cc4[C@@H]3C2)cc1 | 0.0316
COc1ccc2c(c1)C1CN(Cc3ccccc3)CC1CO2 (stereo not drawn) | 0.2
COc1ccc2c(c1)OCC1CN(Cc3ccccc3)CC21 (stereo not drawn) | 0.251
Brc1ccc2c(c1)C1CN(Cc3ccccc3)CC1CO2 (stereo in doubt; cis) | 0.501
N#Cc1ccc2c(c1)C1CN(Cc3ccccc3)CC1CC2 (trans isomer) | 0.01
Brc1ccc2c(c1)C1CN(Cc3ccccc3)CC1CO2 (stereo in doubt; trans) | 0.0501
N#Cc1ccc2c(c1)[C@H]1CN(CCCCNC(=O)c3ccc(-c4ccc(N)cc4)cc3)C[C@@H]1CO2 (single isomer, unassigned) | 0.02
